# System: Aspergillus niger
# Test protocol: Antifungal activity against Aspergillus niger NCIM 1196 at 1000 ug/disk after 72 hr by disk diffusion method
# Type: functional
# Run parameters: NCIM 1196, 72 h, read-out: DIZ
Outcome measure: zone of inhibition at 1000 µg/disc (mm)
Record the value in mm, omitting the unit from your answer.

# input # lookup: zone of inhibition at 1000 µg/disc of `Cc1cccc2cc3c(=O)[nH]c(=S)[nH]c3nc12`
# output 16

# input # lookup: zone of inhibition at 1000 µg/disc of `Cc1ccc2nc3[nH]c(=O)[nH]c(=O)c3cc2c1`
# output 11

# input # lookup: zone of inhibition at 1000 µg/disc of `O=c1[nH]c(=O)c2cc3ccccc3nc2[nH]1`
# output 10

# input # lookup: zone of inhibition at 1000 µg/disc of `Cc1ccc2nc3[nH]c(=S)[nH]c(=O)c3cc2c1`
# output 14

# input # lookup: zone of inhibition at 1000 µg/disc of `O=c1[nH]c(=S)[nH]c2nc3ccc(Cl)cc3cc12`
# output 14

# input # lookup: zone of inhibition at 1000 µg/disc of `O=c1[nH]c(=S)[nH]c2nc3ccccc3cc12`
# output 10

# input # lookup: zone of inhibition at 1000 µg/disc of `COc1ccc2nc3[nH]c(=S)[nH]c(=O)c3cc2c1`
# output 13

# input # lookup: zone of inhibition at 1000 µg/disc of `COc1cccc2cc3c(=O)[nH]c(=S)[nH]c3nc12`
# output 10

# input # lookup: zone of inhibition at 1000 µg/disc of `O=c1[nH]c(=S)[nH]c2nc3ccc(Br)cc3cc12`
# output 10

# input # lookup: zone of inhibition at 1000 µg/disc of `O=c1[nH]c(=O)c2cc3cc(Br)ccc3nc2[nH]1`
# output 12

# input # lookup: zone of inhibition at 1000 µg/disc of `COc1cccc2cc3c(=O)[nH]c(=O)[nH]c3nc12`
# output 11

###

# System: Penicillium chrysogenum
# Test protocol: Antifungal activity against Penicillium chrysogenum NCIM 707 at 1000 ug/disk after 72 hr by disk diffusion method
# Type: functional
# Run parameters: NCIM 707, 72 h, read-out: DIZ
Kindly state zone of inhibition at 1000 µg/disc for each of the entries shown.
Record the value in mm, omitting the unit from your answer.

# input # lookup: zone of inhibition at 1000 µg/disc of `COc1cccc2cc3c(=O)[nH]c(=O)[nH]c3nc12`
# output 8

# input # lookup: zone of inhibition at 1000 µg/disc of `O=c1[nH]c(=S)[nH]c2nc3ccc(Br)cc3cc12`
# output 12

# input # lookup: zone of inhibition at 1000 µg/disc of `Cc1cccc2cc3c(=O)[nH]c(=S)[nH]c3nc12`
# output 9

# input # lookup: zone of inhibition at 1000 µg/disc of `O=c1[nH]c(=S)[nH]c2nc3ccccc3cc12`
# output 12

# input # lookup: zone of inhibition at 1000 µg/disc of `COc1ccc2nc3[nH]c(=S)[nH]c(=O)c3cc2c1`
# output 12

###

# Test system: Pseudomonas aeruginosa
# Test protocol: Antibacterial activity against Pseudomonas aeruginosa NCIM 2200 at 1000 ug/disk after 24 hr by disk diffusion method
# Assay type: functional
# Run parameters: NCIM 2200, 24 h, read-out: DIZ
Outcome measure: zone of inhibition at 1000 µg/disc (mm)
Record the value in mm, omitting the unit from your answer.

# input # lookup: zone of inhibition at 1000 µg/disc of `O=c1[nH]c(=O)c2cc3cc(Cl)ccc3nc2[nH]1`
# output 12

# input # lookup: zone of inhibition at 1000 µg/disc of `O=c1[nH]c(=O)c2cc3cc(Br)ccc3nc2[nH]1`
# output 12

# input # lookup: zone of inhibition at 1000 µg/disc of `O=c1[nH]c(=O)c2cc3ccccc3nc2[nH]1`
# output 14

# input # lookup: zone of inhibition at 1000 µg/disc of `Cc1ccc2nc3[nH]c(=O)[nH]c(=O)c3cc2c1`
# output 17

# input # lookup: zone of inhibition at 1000 µg/disc of `O=c1[nH]c(=S)[nH]c2nc3ccc(Br)cc3cc12`
# output 12

# input # lookup: zone of inhibition at 1000 µg/disc of `O=c1[nH]c(=S)[nH]c2nc3ccccc3cc12`
# output 11

# input # lookup: zone of inhibition at 1000 µg/disc of `COc1cccc2cc3c(=O)[nH]c(=S)[nH]c3nc12`
# output 13

# input # lookup: zone of inhibition at 1000 µg/disc of `Cc1cccc2cc3c(=O)[nH]c(=S)[nH]c3nc12`
# output 12

# input # lookup: zone of inhibition at 1000 µg/disc of `COc1cccc2cc3c(=O)[nH]c(=O)[nH]c3nc12`
# output 10

# input # lookup: zone of inhibition at 1000 µg/disc of `COc1ccc2nc3[nH]c(=O)[nH]c(=O)c3cc2c1`
# output 13

# input # lookup: zone of inhibition at 1000 µg/disc of `Cc1cccc2cc3c(=O)[nH]c(=O)[nH]c3nc12`
# output 11

# input # lookup: zone of inhibition at 1000 µg/disc of `O=c1[nH]c(=S)[nH]c2nc3ccc(Cl)cc3cc12`
# output 13

# input # lookup: zone of inhibition at 1000 µg/disc of `COc1ccc2nc3[nH]c(=S)[nH]c(=O)c3cc2c1`
# output 15

# input # lookup: zone of inhibition at 1000 µg/disc of `Cc1ccc2nc3[nH]c(=S)[nH]c(=O)c3cc2c1`
# output 12
